measured_target: glucosylceramide synthase (Homo sapiens)
Construct: made in house; host or cells: Expi293F cells (transient expression, pcDNA3.3-TOPO vector); microsome fraction used as enzyme source
Sequence (Q16739 1-394): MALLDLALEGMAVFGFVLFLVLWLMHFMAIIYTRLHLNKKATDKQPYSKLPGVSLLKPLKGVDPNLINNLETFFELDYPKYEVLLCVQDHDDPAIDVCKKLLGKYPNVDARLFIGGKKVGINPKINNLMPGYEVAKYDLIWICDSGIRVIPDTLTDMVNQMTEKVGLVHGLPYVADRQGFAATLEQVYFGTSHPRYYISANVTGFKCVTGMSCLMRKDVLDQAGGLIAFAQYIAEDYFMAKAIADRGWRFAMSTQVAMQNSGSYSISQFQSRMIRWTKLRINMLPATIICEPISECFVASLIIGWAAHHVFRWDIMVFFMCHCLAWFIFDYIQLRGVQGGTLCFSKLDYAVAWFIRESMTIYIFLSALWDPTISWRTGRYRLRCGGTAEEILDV
assay_overview: Glucosylceramide synthase (GCS) enzyme assay, microsome fraction, C8 glucosylceramide quantified by Rapidfire MS/MS
Type: biochemical
protocol_conditions: test compound 10 μM; 1.7 μM UDP-glucose, 3 μM C8 ceramide; room temperature 60 min; read-out: GCS enzyme inhibitory rate at 10 μM (%) (% of control)
Experimental: Glucosylceramide Synthase (GCS) Assay In enzyme assay, a microsome fraction obtained by transient expression by Expi293F™ cells (catalog number: A14527, Thermo Fisher Scientific) was used as a glucosylceramide synthase source. […] After the enzymatic reaction, the analysis was performed with Rapidfire MS/MS (API-4000™, SCIEX), and C8 glucosylceramide was quantified to evaluate the inhibitory activity of the test compound against glucosylceramide synthase activity. […]
endpoint_label: inhibition at 10 µM (%)
The reply should be a number in %, with the unit left off.

// worked examples, inhibition at 10 µM included
molecule=O=C1c2ccnc(-c3ccc(F)cc3OCc3ccccc3)c2CN1c1ccc(OC(F)F)cc1 endpoint_label="inhibition at 10 µM" measure_unit=% test_value=99
molecule=O=C1c2ccnc(-c3ccc(F)cc3OCC(F)(F)F)c2CN1c1ccc(OC(F)F)cn1 endpoint_label="inhibition at 10 µM" measure_unit=% test_value=98
molecule=O=C1c2ccnc(-c3ccccc3OCC(F)(F)F)c2CN1c1ccc(O[C@@H]2CCOC2)cc1 endpoint_label="inhibition at 10 µM" measure_unit=% test_value=100

Any idea what inhibition at 10 µM was measured for `CN(C)C(=O)c1ccc(N2Cc3ccnc(-c4ccc(F)cc4OCC(F)(F)F)c3C2)cc1` ?
90

Input `CC(C)n1cc2c(c(-c3ccccc3OCC(F)(F)F)c1=O)CN(c1ccc(OCC(C)(C)O)cc1)C2=O`
100

Input `CC(C)(CO)c1ccc(N2Cc3c(ccnc3-c3ccc(F)cc3OCC(F)(F)F)C2=O)cc1`
98

Input `CC(C)(O)c1ccc(N2Cc3c(ccnc3-c3cc(F)ccc3OCC(F)(F)F)C2=O)cc1`
99

Input `CC(C)(O)COc1ccc(N2Cc3c(ccnc3-c3ccccc3OCC(F)(F)F)C2=O)cc1`
100

Input `O=C1c2ccnc(-c3ccc(F)cc3OCC(F)(F)F)c2CN1c1cnc(OC(F)F)cn1`
96

Input `CN(C)C(=O)c1ccc(N2Cc3cnn(-c4ccccc4OCC(F)(F)F)c3C2)cc1`
98

Input `CC(C)n1cc2c(c(-c3ccccc3OCC(F)(F)F)c1=O)CN(c1ccc(C(C)(C)O)cc1)C2=O`
100

Input `O=C1c2ccnc(-c3ccc(F)cc3OCC(F)(F)F)c2CN1c1ccc(C2(O)CCOCC2)c(F)c1`
98

Input O=C1c2ccnc(-c3ccccc3OCC(F)(F)F)c2CN1c1ccc(C(O)C2CC2)cc1 (racemic)
100

Input `O=C(C1CC1)N1CC(O)(c2ccc(N3Cc4c(ccnc4-c4ccccc4OCC(F)(F)F)C3=O)cc2)C1`
93

Input `CC(C)(O)c1ccc(N2Cc3c(cc(C4CCOCC4)nc3-c3ccccc3OCC(F)(F)F)C2=O)cc1`
101
